Molecular target: Cbl-b (Homo sapiens (Human))
Sequence (Q13191 36-427): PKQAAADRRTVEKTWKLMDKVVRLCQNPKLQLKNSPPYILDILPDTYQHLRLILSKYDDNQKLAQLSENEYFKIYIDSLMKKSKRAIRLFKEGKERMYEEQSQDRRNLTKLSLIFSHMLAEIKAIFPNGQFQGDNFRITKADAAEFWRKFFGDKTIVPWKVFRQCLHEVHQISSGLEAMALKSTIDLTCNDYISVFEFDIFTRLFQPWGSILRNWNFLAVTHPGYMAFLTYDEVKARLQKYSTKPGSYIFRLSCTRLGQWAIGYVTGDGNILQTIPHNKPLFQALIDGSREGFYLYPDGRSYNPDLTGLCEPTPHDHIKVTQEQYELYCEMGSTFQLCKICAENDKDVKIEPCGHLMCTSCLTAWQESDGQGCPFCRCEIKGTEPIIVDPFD
Experiment: Cbl-b displacement assay (Cbl-b inhibition assay), Biological Example 1
Format: binding
Details: 0.125 nM Cbl-b final concentration (Low); read-out: Cbl-b activity IC50 (Low)
Reported IC50 values for the following molecules.

INSERT INTO assay_data (molecule, readout, endpoint_value) VALUES
  ('C[C@H]1CCCN(Cc2cc(C(=O)Nc3cccc([C@]4(Cc5nncn5C)C[C@@H](C#N)C4)c3)nc(C3CC3)c2)C1', 'IC50', '< 1 nM'),
  ('C[C@@H]1CN(Cc2cc3c(c(C(F)(F)F)c2)CN(c2cccc([C@]4(Cc5nncn5C)C[C@H](CC#N)C4)c2)C3=O)CCC1(F)F', 'IC50', '5 to 20 nM'),
  ('C[C@@H]1CN(Cc2cc3c(c(C4CC4)n2)CN(c2cccc([C@]4(Cc5nncn5C)C[C@@H](C#N)C4)c2)C3=O)CCC1(F)F', 'IC50', '2 to 5 nM'),
  ('CCC1COCCN(Cc2cc3c(c(C(F)(F)F)c2)CN(c2cccc([C@]4(Cc5nncn5C)C[C@@H](C#N)C4)c2)C3=O)C1 (stereo partly shown)', 'IC50', '2 to 5 nM'),
  ('Cn1cnnc1C[C@]1(c2cccc(N3Cc4c(cc(CNC5CC6C(C5)C6(F)F)cc4C(F)(F)F)C3=O)c2)C[C@H](C#N)C1 (stereo partly shown)', 'IC50', '< 1 nM'),
  ('C[C@@H]1CN(Cc2cc3c(c(C(F)(F)F)c2)CN(c2cccc([C@]4(Cc5nncn5C)C[C@@](C)(C#N)C4)c2)C3=O)CCO1', 'IC50', '5 to 20 nM');

Look at this molecule and give its reported IC50. Cn1cnnc1C[C@]1(c2cccc(N3Cc4c(cc(CNC5CC6(C5)CC6(F)F)cc4C(F)(F)F)C3=O)c2)C[C@H](C#N)C1 (stereo partly shown) 1 to 2 nM

Look at this molecule and give its reported IC50. Cn1cnnc1C[C@]1(c2cccc(N3Cc4c(cc(CN5CC6CCC(F)(F)C6C5)cc4C(F)(F)F)C3=O)c2)C[C@H](C#N)C1 (stereo partly shown) 2 to 5 nM
